test system: Pseudomonas aeruginosa W21; test: MIC on clinically isolated bacteria; type: cell-based; settings: read-out: MIC
// reported log10(MIC) per item
quantity-measured: log10(MIC) (log10 of the value in µg/mL)

{"columns": ["molecule", "numeric-result"],
 "data": [
  ["C[C@@H](O)[C@H]1C(=O)N2C(C(=O)O)=C(S[C@@H]3CN[C@H](C(=O)N(C)C)C3)[C@H](C)[C@H]12 [Meropenem, reference compound]", 1.20],
  ["CC1(C)[C@H](NC(=O)/C(=N\\O[C@@H](COc2ccc3c(c2)CN(/C(=N\\[C@@H]2CCCNC2)N[C@@H]2CCCNC2)C3)C(=O)O)c2csc(N)n2)C(=O)N1OS(=O)(=O)O [Compound 46]", -0.60],
  ["CC1(C)[C@H](NC(=O)/C(=N\\O[C@@H](COc2ccc3c(c2)CN(C(=N)NCCN)C3)C(=O)O)c2csc(N)n2)C(=O)N1OS(=O)(=O)O [Compound 44]", -0.30],
  ["CC1(C)[C@H](NC(=O)/C(=N\\O[C@@H](COc2ccc3c(c2)CN(C(=N)N(CCN)CCN)C3)C(=O)O)c2csc(N)n2)C(=O)N1OS(=O)(=O)O [Compound 45]", 0.60],
  ["CC1(C)[C@H](NC(=O)/C(=N\\O[C@@H](COc2ccc3c(c2)CN(C(=N)NOCCN)C3)C(=O)O)c2csc(N)n2)C(=O)N1OS(=O)(=O)O [Compound 43]", 0.00],
  ["CC1(C)[C@H](NC(=O)/C(=N\\O[C@@H](COc2ccc3c(c2)CN(C(=N)N[C@@H]2CCCNC2)C3)C(=O)O)c2csc(N)n2)C(=O)N1OS(=O)(=O)O [Compound 41]", -0.30],
  ["CC1(C)[C@H](NC(=O)/C(=N\\O[C@@H](COc2ccc3c(c2)CN(C(=N)NCCCCN)C3)C(=O)O)c2csc(N)n2)C(=O)N1OS(=O)(=O)O [Compound 36]", -0.60],
  ["C[C@H]1[C@H](NC(=O)/C(=N\\OC(C)(C)C(=O)O)c2csc(N)n2)C(=O)N1S(=O)(=O)O [Aztreonam, reference compound]", 1.20]
]}

* * *

test system: Pseudomonas aeruginosa W28; experiment: MIC on clinically isolated bacteria; type: cell-based; conditions: read-out: MIC
quantity-measured: MIC (µg/mL)

{"columns": ["compound", "target", "measurement-unit", "readout-qualifier", "numeric-result"],
 "data": [
  ["CC1(C)[C@H](NC(=O)/C(=N\\O[C@@H](COc2ccc3c(c2)CN(C(=N)NCCCCN)C3)C(=O)O)c2csc(N)n2)C(=O)N1OS(=O)(=O)O [Compound 36]", "Pseudomonas aeruginosa W28", "µg/mL", "=", 4],
  ["CC1(C)[C@H](NC(=O)/C(=N\\O[C@@H](COc2ccc3c(c2)CN(C(=N)N(CCN)CCN)C3)C(=O)O)c2csc(N)n2)C(=O)N1OS(=O)(=O)O [Compound 45]", "Pseudomonas aeruginosa W28", "µg/mL", ">", 16],
  ["CC1(C)[C@H](NC(=O)/C(=N\\O[C@@H](COc2ccc3c(c2)CN(C(=N)N[C@@H]2CCCNC2)C3)C(=O)O)c2csc(N)n2)C(=O)N1OS(=O)(=O)O [Compound 41]", "Pseudomonas aeruginosa W28", "µg/mL", "=", 4]
]}

Measured values drawn from patent US11459323B2 for this set.
